Where do the numbers come from? From patent US12662479B2.

Assayed System: HiBit-BRG1 fusion protein (Homo sapiens, UniProt P51532)
Construct: expressed in transfected cells
Sequence (P51532 whole entry, the tested form may be a part): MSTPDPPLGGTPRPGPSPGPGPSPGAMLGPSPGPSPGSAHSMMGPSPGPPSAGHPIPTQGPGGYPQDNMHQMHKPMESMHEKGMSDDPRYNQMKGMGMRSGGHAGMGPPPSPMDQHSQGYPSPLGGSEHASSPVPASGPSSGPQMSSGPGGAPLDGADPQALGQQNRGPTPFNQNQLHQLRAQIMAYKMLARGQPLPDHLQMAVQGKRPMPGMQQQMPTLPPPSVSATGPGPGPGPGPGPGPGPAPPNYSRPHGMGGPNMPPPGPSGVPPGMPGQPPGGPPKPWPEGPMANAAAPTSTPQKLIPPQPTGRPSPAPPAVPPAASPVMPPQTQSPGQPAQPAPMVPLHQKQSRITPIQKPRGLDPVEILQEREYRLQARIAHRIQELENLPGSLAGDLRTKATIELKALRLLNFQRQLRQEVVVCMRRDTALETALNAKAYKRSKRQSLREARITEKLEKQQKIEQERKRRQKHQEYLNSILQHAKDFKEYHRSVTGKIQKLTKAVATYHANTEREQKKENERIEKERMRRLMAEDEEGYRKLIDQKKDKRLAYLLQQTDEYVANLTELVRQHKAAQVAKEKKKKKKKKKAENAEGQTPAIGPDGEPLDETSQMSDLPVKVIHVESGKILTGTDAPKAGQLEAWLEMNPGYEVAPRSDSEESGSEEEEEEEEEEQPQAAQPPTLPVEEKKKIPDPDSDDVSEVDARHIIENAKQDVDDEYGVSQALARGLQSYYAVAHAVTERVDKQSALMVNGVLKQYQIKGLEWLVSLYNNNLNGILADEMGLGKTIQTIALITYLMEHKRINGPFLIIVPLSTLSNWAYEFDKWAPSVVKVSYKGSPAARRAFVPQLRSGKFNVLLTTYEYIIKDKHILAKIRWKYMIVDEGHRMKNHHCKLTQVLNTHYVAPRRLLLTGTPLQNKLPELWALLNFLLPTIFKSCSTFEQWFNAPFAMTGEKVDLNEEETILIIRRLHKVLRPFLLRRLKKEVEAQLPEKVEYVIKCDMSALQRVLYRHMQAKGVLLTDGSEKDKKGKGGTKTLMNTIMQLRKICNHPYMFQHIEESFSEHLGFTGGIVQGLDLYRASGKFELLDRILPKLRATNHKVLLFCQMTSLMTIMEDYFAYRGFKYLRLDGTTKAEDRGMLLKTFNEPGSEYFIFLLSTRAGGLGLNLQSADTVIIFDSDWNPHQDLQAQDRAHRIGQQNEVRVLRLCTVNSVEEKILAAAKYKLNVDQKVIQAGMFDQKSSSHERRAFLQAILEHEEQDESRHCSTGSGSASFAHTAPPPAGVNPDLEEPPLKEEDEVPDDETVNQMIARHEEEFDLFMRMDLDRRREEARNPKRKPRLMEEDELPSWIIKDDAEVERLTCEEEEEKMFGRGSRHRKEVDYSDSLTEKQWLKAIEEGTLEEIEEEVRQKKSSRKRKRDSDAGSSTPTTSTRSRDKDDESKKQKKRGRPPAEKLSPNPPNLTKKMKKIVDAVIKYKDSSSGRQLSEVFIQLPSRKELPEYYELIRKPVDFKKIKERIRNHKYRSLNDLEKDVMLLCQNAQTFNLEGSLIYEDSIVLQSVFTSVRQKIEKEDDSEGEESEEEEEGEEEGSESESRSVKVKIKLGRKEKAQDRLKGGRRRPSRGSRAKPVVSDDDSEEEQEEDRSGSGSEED
Measurement Protocol: HiBiT-BRG1 cell-based degradation assay (Nano-Glo HiBiT Lytic Detection, 24 h)
Measurement Conditions: HeLa, HeLa cells expressing HiBit-BRG1 and LgBit, top dose 30 μM, read-out: BRG1 HiBit Degradation Maximum measured
Experimental: Procedure: A stable HeLa cell line expressing HiBiT-BRM was generated. On day 0, 5000 cells were seeded in 40 μL of media into each well of 384-well cell culture plates. […] The plates were shaken for 10 minutes at room temperature and the bioluminescence read using an EnVision plate reader (PerkinElmer). […] The degradation % was calculated using the following formula: % degradation=100%−100%×(LumSample−LumLC)/(LumHC−LumLC). […]
Below is a list of entries, each paired with its recorded Dmax value.

* Cc1ncsc1-c1ccc(CNC(=O)[C@@H]2C[C@@H](O)CN2C(=O)[C@@H](NC(=O)CCCCCCCNC(=O)CN(C)c2cc(-c3cccc(-c4csc(NC(=O)CNC(=O)c5ccn(S(C)(=O)=O)c5)n4)c3)ccn2)C(C)(C)C)cc1 [Compound 88] | 50 to 75%
* CS(=O)(=O)n1ccc(C(=O)N[C@@H](COCc2ccc(C(=O)NCCOCc3cccc(COCCOc4ccc5c(c4)C(=O)N(C4CCC(=O)NC4=O)C5=O)c3)cc2)C(=O)Nc2nc(-c3ccccc3)cs2)c1 (some centres unmarked) [Compound 237] | 50 to 75%
* CS(=O)(=O)n1ccc(C(=O)N[C@@H](CCOCCCC(=O)NCCOCCOCCOCCNC(=O)COc2cccc3c2C(=O)N(C2CCC(=O)NC2=O)C3=O)C(=O)Nc2nc(-c3ccccc3)cs2)c1 (some centres unmarked) [Compound 258] | < 50%

Which Dmax value is on record for Cc1ncsc1-c1ccc(CNC(=O)[C@@H]2C[C@@H](O)CN2C(=O)[C@@H](NC(=O)C2CC2C(=O)NCc2cccc(-c3cccc(-c4csc(NC(=O)CNC(=O)c5ccn(S(C)(=O)=O)c5)n4)c3)c2)C(C)(C)C)cc1 (some centres unmarked) [Compound 159] ?
< 50%

Which Dmax value is on record for CN(CCCCNC(=O)C1(c2cc(-c3cccc(-c4csc(NC(=O)CNC(=O)c5ccn(S(C)(=O)=O)c5)n4)c3)ccn2)CC1)CCCNc1cccc2c1C(=O)N(C1CCC(=O)NC1=O)C2=O (centres unmarked) [Compound 106] ?
< 50%

----------
Assayed System: HiBit-BRG1 fusion protein (Homo sapiens, UniProt P51532)
Construct: expressed in transfected cells
Measurement Protocol: HiBiT-BRG1 cell-based degradation assay (Nano-Glo HiBiT Lytic Detection, 24 h)
Measurement Conditions: HeLa cells expressing HiBit-BRG1 and LgBit, read-out: BRG1 HiBit Degradation IC50
Procedure: Procedure: A stable HeLa cell line expressing HiBiT-BRM was generated. On day 0, 5000 cells were seeded in 40 μL of media into each well of 384-well cell culture plates. […] The plates were shaken for 10 minutes at room temperature and the bioluminescence read using an EnVision plate reader (PerkinElmer). […] The degradation % was calculated using the following formula: % degradation=100%−100%×(LumSample−LumLC)/(LumHC−LumLC). […]
Assay Readout: DC50

Reference set (3 entries):
• Cc1ncsc1-c1ccc(CNC(=O)[C@@H]2C[C@@H](O)CN2C(=O)[C@@H](NC(=O)CCCCCCC(=O)NCc2cc(-c3cccc(-c4csc(NC(=O)CNC(=O)c5ccn(S(C)(=O)=O)c5)n4)c3)ccn2)C(C)(C)C)cc1 = > 10 µM
• CS(=O)(=O)n1ccc(C(=O)N[C@@H](COCc2ccc(C(=O)NC3CCN(CCOc4ccc5c(c4)C(=O)N(C4CCC(=O)NC4=O)C5=O)CC3)cc2)C(=O)Nc2nc(-c3ccccc3)cs2)c1 (some centres unmarked) = 0.1 to 1 µM
• CS(=O)(=O)n1ccc(C(=O)NCC(=O)Nc2nc(-c3cccc(-c4ccnc(N5CCN(C(=O)CCOCCOCCNc6ccc7c(c6)C(=O)N(C6CCC(=O)NC6=O)C7=O)CC5)c4)c3)cs2)c1 (centres unmarked) = < 0.1 µM

Which DC50 value is on record for CS(=O)(=O)n1ccc(C(=O)NCC(=O)Nc2nc(C3CCCN(C(=O)CCCCOc4cccc5c4C(=O)N(C4CCC(=O)NC4=O)C5=O)C3)cs2)c1 (centres unmarked) ?
> 10 µM

Which DC50 value is on record for CS(=O)(=O)n1ccc(C(=O)N[C@@H](COCc2ccc(C(=O)N3CC(CN4CCN(c5ccc6c(c5)C(=O)N(C5CCC(=O)NC5=O)C6=O)CC4)C3)cc2)C(=O)Nc2nc(-c3ccccc3)cs2)c1 (some centres unmarked) ?
0.1 to 1 µM

----------
Assayed System: HiBit-BRG1 fusion protein (Homo sapiens)
Construct: expressed in transfected cells
Measurement Protocol: HiBiT-BRG1 cell-based degradation assay (Nano-Glo HiBiT Lytic Detection, 24 h)
Measurement Conditions: HeLa, HeLa cells expressing HiBit-BRG1 and LgBit, top dose 30 μM, read-out: BRG1 HiBit Degradation Maximum measured
Assay Readout: Dmax

Reference set (5 entries):
• Cc1ncsc1-c1ccc(CNC(=O)[C@@H]2C[C@@H](O)CN2C(=O)[C@@H](NC(=O)CCCCCCCCCC(=O)NCc2cccc(-c3cccc(-c4csc(NC(=O)CNC(=O)c5ccn(S(C)(=O)=O)c5)n4)c3)c2)C(C)(C)C)cc1 = > 75%
• CS(=O)(=O)n1ccc(C(=O)N[C@@H](CCOCCCC(=O)NCCCCS(=O)(=O)CCCNc2cccc3c2C(=O)N(C2CCC(=O)NC2=O)C3=O)C(=O)Nc2nc(-c3ccccc3)cs2)c1 (stereo partly drawn) = < 50%
• CS(=O)(=O)n1ccc(C(=O)N[C@@H](CCOCCCC(=O)N2CC(CCOc3cccc4c3C(=O)N(C3CCC(=O)NC3=O)C4=O)C2)C(=O)Nc2nc(-c3ccccc3)cs2)c1 (stereo partly drawn) = < 50%
• CS(=O)(=O)n1ccc(C(=O)NCC(=O)Nc2nc(-c3cccc(-c4cccc(CNC(=O)CCCOc5cccc6c5C(=O)N(C5CCC(=O)NC5=O)C6=O)c4)c3)cs2)c1 (stereo not drawn) = < 50%
• Cc1ncsc1-c1ccc(CNC(=O)[C@@H]2C[C@@H](O)CN2C(=O)[C@@H](NC(=O)CCCCCCCCC(=O)NCCCC[C@H](NC(=O)c2ccn(S(C)(=O)=O)c2)C(=O)Nc2nc(-c3ccccc3)cs2)C(C)(C)C)cc1 = < 50%

Switching to the query record.
Which Dmax value is on record for CS(=O)(=O)n1ccc(C(=O)NCC(=O)Nc2nc(-c3cccc(-c4ccnc(C5(C(=O)NC6CCN(CCOc7ccc8c(c7)C(=O)N(C7CCC(=O)NC7=O)C8=O)CC6)CC5)c4)c3)cs2)c1 (stereo not drawn) ?
> 75%

----------
Assayed System: HiBit-BRG1 fusion protein (Homo sapiens, UniProt P51532)
Construct: expressed in transfected cells
Measurement Protocol: HiBiT-BRG1 cell-based degradation assay (Nano-Glo HiBiT Lytic Detection, 24 h)
Measurement Conditions: HeLa cells expressing HiBit-BRG1 and LgBit, read-out: BRG1 HiBit Degradation IC50
Assay Readout: DC50

Reference set (6 entries):
• CS(=O)(=O)n1ccc(C(=O)N[C@@H](COCc2ccc(C(=O)NCCCCS(=O)(=O)CCCNc3cccc4c3C(=O)N(C3CCC(=O)NC3=O)C4=O)cc2)C(=O)Nc2nc(-c3ccccc3)cs2)c1 (stereo partly shown) [Compound 248] = 0.1 to 1 µM
• CS(=O)(=O)n1ccc(C(=O)N[C@@H](COCc2ccc(C(=O)NCCS(=O)(=O)CCNc3cccc4c3C(=O)N(C3CCC(=O)NC3=O)C4=O)cc2)C(=O)Nc2nc(-c3ccccc3)cs2)c1 (stereo partly shown) [Compound 190] = > 10 µM
• CS(=O)(=O)n1ccc(C(=O)N[C@@H](CCOCCCC(=O)NCCC2CCN(c3ccc4c(c3)C(=O)N(C3CCC(=O)NC3=O)C4=O)CC2)C(=O)Nc2nc(-c3ccccc3)cs2)c1 (stereo partly shown) [Compound 277] = > 10 µM
• CS(=O)(=O)n1ccc(C(=O)N[C@@H](COCc2ccc(CNC(=O)CCOCCOCCOc3ccc4c(c3)C(=O)N(C3CCC(=O)NC3=O)C4=O)cc2)C(=O)Nc2nc(-c3ccccc3)cs2)c1 (stereo partly shown) [Compound 217] = 0.1 to 1 µM
• Cc1ncsc1-c1ccc(CNC(=O)[C@@H]2C[C@@H](O)CN2C(=O)[C@@H](NC(=O)COCCOCCNC(=O)CN(C)c2cc(-c3cccc(-c4csc(NC(=O)CNC(=O)c5ccn(S(C)(=O)=O)c5)n4)c3)ccn2)C(C)(C)C)cc1 [Compound 94] = > 10 µM
• CS(=O)(=O)n1ccc(C(=O)N[C@@H](CCCCNC(=O)CCOCCOCCNc2ccc3c(c2)C(=O)N(C2CCC(=O)NC2=O)C3=O)C(=O)Nc2nc(-c3ccccc3)cs2)c1 (stereo partly shown) [Compound 292] = > 10 µM

Which DC50 value is on record for CS(=O)(=O)n1ccc(C(=O)N[C@@H](CCCCNC(=O)CCN2CCN(c3ccc4c(c3)C(=O)N(C3CCC(=O)NC3=O)C4=O)CC2)C(=O)Nc2nc(-c3ccccc3)cs2)c1 (stereo partly shown) [Compound 297] ?
> 10 µM

Which DC50 value is on record for CS(=O)(=O)n1ccc(C(=O)N[C@@H](CCOCCCC(=O)N2CCN(CCCCCOc3ccc4c(c3)C(=O)N(C3CCC(=O)NC3=O)C4=O)CC2)C(=O)Nc2nc(-c3ccccc3)cs2)c1 (stereo partly shown) [Compound 254] ?
> 10 µM

Which DC50 value is on record for CS(=O)(=O)n1ccc(C(=O)NCC(=O)Nc2nc(-c3cccc(-c4ccnc(C5(C(=O)NCCCC#Cc6cccc7c6C(=O)N(C6CCC(=O)NC6=O)C7=O)CC5)c4)c3)cs2)c1 (stereo not shown) [Compound 152] ?
> 10 µM

Which DC50 value is on record for CS(=O)(=O)n1ccc(C(=O)N[C@@H](COCc2ccc(C(=O)N3CCN(CCCOc4ccc5c(c4)C(=O)N(C4CCC(=O)NC4=O)C5=O)CC3)cc2)C(=O)Nc2nc(-c3ccccc3)cs2)c1 (stereo partly shown) [Compound 235] ?
> 10 µM
